- test_description: qHTS profiling of the MIPE4 collection as inhibitors of Plasmodium falciparum (DD2) proliferation (Rep 2) (AID 743346)
- run_conditions: P. falciparum Dd2 in erythrocytes, SYBR Green DNA, 72 h; at 28.5 µM unless noted
Please respond with Yes when measured parasite growth, % of control (lower = inhibition) is strictly beneath 40%, and with No in all other cases.

Known results for compounds:
Record C[C@H](c1ccc(F)cc1CCCC(=O)O)N(c1cc(F)ccc1F)S(=O)(=O)c1ccc(Cl)cc1 : is its parasite growth, % of control (lower = inhibition) strictly below 40%? Yes

Record CCC[C@@H](NC(=O)[C@@H]1[C@H]2CCC[C@@H]2CN1C(=O)[C@@H](NC(=O)[C@@H](NC(=O)c1cnccn1)C1CCCCC1)C(C)(C)C)C(=O)C(=O)NC1CC1 : is its parasite growth, % of control (lower = inhibition) strictly below 40%? Yes

Record CC(=O)OCC(=O)[C@@]12OC(C)(C)O[C@H]1C[C@H]1[C@@H]3C[C@H](F)C4=CC(=O)C=C[C@]4(C)[C@@]3(F)[C@@H](O)C[C@@]12C : is its parasite growth, % of control (lower = inhibition) strictly below 40%? Yes

Record CCCCc1ccc(NS(=O)(=O)c2ccc(C)c(C(=O)N3CCN(c4cccc(C)c4C)CC3)c2)cc1 : is its parasite growth, % of control (lower = inhibition) strictly below 40%? No

# next compound below
Record CC(C)c1onc(-c2c(Cl)cccc2Cl)c1COc1ccc(C=Cc2cccc(C(=O)O)c2)c(Cl)c1 : is its parasite growth, % of control (lower = inhibition) strictly below 40%? No

###

- test_description: Quantitative High-Throughput drug screen in 47 multiple myeloma cell lines against the NCATS MIPE library collection: LP1_DSMZ cell viability assay (AID 1918982); further: nearly all actives have a fitted effect of over 35% in size
- run_conditions: LP1 myeloma viability, CellTiter-Glo ATP luminescence, 48 h; series mostly up to 45.8 µM
Inconclusive results are not listed. Calls of active or inactive are those of the source. Calls come from the whole dose curve; as a rule, active = well fitted cell-killing curve with a large enough effect; inconclusive = small, poorly fitted or top-dose-only effect, or effect the other way; inactive = no such curve, though single readings can be large or run the other way.
Your answer must be one of the following: Yes (active), No (inactive)

Known results for molecules:
Any idea what this test logged for CCCCC[C@H](O)C=C[C@H]1[C@H](O)CC(=O)[C@H]1CC=CCCCC(=O)O ? No

Any idea what this test logged for COc1ccc(-c2cc(=O)c3c(O)cc(O[C@@H]4O[C@H](CO[C@@H]5O[C@@H](C)[C@H](O)[C@@H](O)[C@@H]5O)[C@@H](O)[C@H](O)[C@@H]4O)cc3o2)cc1O ? No

More entries:
Any idea what this test logged for CC[C@H](C=C[C@@H](C)[C@H]1CC[C@H]2[C@@H]3CC=C4C[C@@H](O)CC[C@]4(C)[C@@H]3CC[C@]12C)C(C)C ? No

Any idea what this test logged for Nc1ccn([C@@H]2O[C@H](CO)[C@@H](O)[C@H]2O)c(=O)n1 ? No

Any idea what this test logged for Cc1csc(-c2nnc(Nc3ccc(Oc4ncccc4-c4ccnc(N)n4)cc3)c3ccccc23)c1 ? Yes

Any idea what this test logged for C=C[C@@H]1CN2CCC1C[C@@H]2C(O)c1ccnc2ccc(OC)cc12 (stereo partly specified) ? No

###

- test_description: Quantitative High-Throughput drug screen in 47 multiple myeloma cell lines against the NCATS MIPE library collection: KMS11_JCRBsus cell viability assay (AID 1919873); further: nearly all actives have a fitted effect of over 50% in size
- run_conditions: KMS11 myeloma viability, CellTiter-Glo ATP luminescence, 48 h; series mostly up to 45.8 µM
Results filed as inconclusive are left out. Active and inactive are the calls of the source. Calls come from the whole dose curve; as a rule, active = well fitted cell-killing curve with a large enough effect; inconclusive = small, poorly fitted or top-dose-only effect, or effect the other way; inactive = no such curve, though single readings can be large or run the other way.
Your answer must be one of the following: active, inactive

Known results for compounds:
Any idea what this test logged for O=C1C(c2c(O)[nH]c3ccccc23)=Nc2ccccc21 ? inactive

Any idea what this test logged for CCc1cc(-c2n[nH]c(C)c2-c2ccc3c(c2)OCCO3)c(O)cc1O ? active

Any idea what this test logged for CC1(C)CC(=O)c2c(C(F)(F)F)nn(-c3ccc(C(N)=O)c(NC4CCC(O)CC4)c3)c2C1 (stereo not given) ? active

Any idea what this test logged for CO[C@@H]1C(N(C)C(=O)c2ccccc2)C[C@H]2O[C@]1(C)n1c3ccccc3c3c4c(c5c6ccccc6n2c5c31)C(=O)NC4=O (stereo not given in full) ? active

# next compound below
Any idea what this test logged for COc1ccc(-c2cc3nccn3c(Nc3ncccc3C(N)=O)n2)cc1OC ? active

###

- test_description: Quantitative High-Throughput drug screen in 47 multiple myeloma cell lines against the NCATS MIPE library collection: Karpas417_ECACC cell viability assay (AID 1918961)
- run_conditions: Karpas417 myeloma viability, CellTiter-Glo ATP luminescence, 48 h
Inconclusive results are not listed. Calls of active or inactive are those of the source. Calls follow the shape of the dose curve; as a rule, active = well fitted cell-killing curve with a large enough effect; inconclusive = small, poorly fitted or top-dose-only effect, or effect the other way; inactive = no such curve, though single readings can be large or run the other way.
Your answer must be one of the following: active, inactive

Known results for compounds:
Any idea what this test logged for C=CC[N+]1([C@H]2C[C@H]3[C@@H]4CC[C@H]5C[C@H](O)[C@@H](N6CCOCC6)C[C@]5(C)[C@@H]4CC[C@]3(C)[C@H]2OC(C)=O)CCCC1 ? inactive

Any idea what this test logged for CO[C@H]1/C=C\O[C@@]2(C)Oc3c(C)c(O)c4c(O)c(c5c(nc6cc(C)ccn65)c4c3C2=O)NC(=O)C(C)=CC=C[C@H](C)[C@H](O)[C@@H](C)[C@@H](O)[C@@H](C)[C@H](OC(C)=O)[C@H]1C ? active

Any idea what this test logged for Cc1c(-c2cccc3c(CCCOc4cccc5ccccc45)c(C(=O)O)n(Cc4cccnc4)c23)c(COc2ccc(N3CCN([S+](=O)([O-])N(C)C)CC3)cc2)nn1C ? inactive

More entries:
Any idea what this test logged for CS(=O)(=O)c1ccc(C2=C(c3ccccc3)C(=O)OC2)cc1 ? inactive

Any idea what this test logged for CCC(C)SSc1ncc[nH]1 (configuration not stated) ? active

Any idea what this test logged for O=c1[nH]nc(OCCCc2ccc(Cl)cc2)c(NCc2cccnc2)c1Br ? active

Any idea what this test logged for CC1=C(CC(=O)O)c2cc(F)ccc2C1=Cc1ccc(S(C)=O)cc1 (configuration not stated) ? active

Any idea what this test logged for Clc1ccc(C2(c3ccc(-c4cn[nH]c4)cc3)CCNCC2)cc1 ? active

Any idea what this test logged for NC(=O)c1nnn(Cc2cc(Cl)c(C(=O)c3ccc(Cl)cc3)c(Cl)c2)c1N ? inactive

Any idea what this test logged for O=C(O)C1=NC(C(=O)O)CC(C=CN2c3cc(O)c(OC4OC(CO)C(O)C(O)C4O)cc3CC2C(=O)O)=C1 (configuration not stated) ? inactive

Any idea what this test logged for Cc1cn([C@@H]2C[C@@H](O)[C@H](CO)O2)c(=O)[nH]c1=O ? inactive

Any idea what this test logged for C[C@H]1O[C@@H](n2cc(F)c(=O)[nH]c2=O)[C@H](O)[C@H]1O ? inactive

Any idea what this test logged for Cc1cc(CS(=O)(=O)c2ccccc2)cc(OCc2ccc(CN3CCC[C@H]3CO)cc2)c1 ? active

Any idea what this test logged for O=C(O)CCNc1cc(N2CCc3ccccc3CC2)nc(-c2ccccn2)n1 ? inactive

Any idea what this test logged for N#Cc1c(N(CC(=O)O)CC(=O)O)sc(C(=O)O)c1CC(=O)O ? inactive

Any idea what this test logged for O=C(CC12CC3CC(CC(C3)C1)C2)Nc1cccc2nc(NCCNCCO)ccc12 ? active

Any idea what this test logged for CC1(C)[C@H]2CC[C@]3(C)[C@@H](C(=O)C=C4[C@@H]5C[C@@](C)(C(=O)O)CC[C@]5(C)CC[C@]43C)[C@@]2(C)CC[C@@H]1O ? inactive

###

- test_description: qHTS Screen of the MIPE 4.0 Collection Against Ewings Sarcoma (TC71) (AID 1259253); further: nearly all actives have a fitted effect of over 40% in size
- run_conditions: TC71 Ewing sarcoma viability, CellTiter-Glo, 48 h; series mostly up to 45.8 µM
Results filed as inconclusive are left out. The source made the active and inactive calls. The call rests on the fitted dose curve; in most records, active means well fitted inhibition curve with a large enough effect; inconclusive means small, poorly fitted or top-dose-only effect; inactive means no such curve, though single readings can be large or run the other way.
Your answer must be one of the following: 1.0 (active), 0.0 (inactive)

Any idea what this test logged for C[C@@H]1C[C@H]2[C@@H]3CCC4=CC(=O)C=C[C@]4(C)[C@@]3(F)[C@@H](O)C[C@]2(C)[C@@]1(O)C(=O)CO ? 0.0

Any idea what this test logged for NCC1CCC(C(=O)O)CC1 (centres undefined) ? 1.0

Any idea what this test logged for CC(C)=CCCC(C)=CCCC(C)=CCCC(C)=CCCC(C)=CCCC(C)=CCCC(C)=CCCC(C)=CCCC(C)=CCO ? 0.0

Any idea what this test logged for COc1ccc2c(c1)CC[C@H]1[C@@H]2CC[C@]2(C)[C@@H](NCCCCCCN3C(=O)C=CC3=O)CC[C@H]12 ? 1.0

Any idea what this test logged for COc1ccc(Cn2ccc3ccc(C(=O)NO)cc32)cc1 ? 1.0

Any idea what this test logged for CCN1CCC(n2cc(CNc3cc(Cl)c4ncc(C#N)c(Nc5ccc(F)c(Cl)c5)c4c3)nn2)CC1 ? 1.0

Any idea what this test logged for CC(=O)O[C@]1(C(C)=O)CC[C@H]2[C@@H]3C=C(Cl)C4=CC(=O)[C@@H]5C[C@H]5[C@]4(C)[C@@H]3CC[C@@]21C ? 1.0

Any idea what this test logged for O=S(=O)(NCCNCC=Cc1ccc(Br)cc1)c1cccc2cnccc12 ? 1.0

Any idea what this test logged for Cc1ccc(NC(=O)Nc2cc(C(F)(F)F)ccc2F)cc1Nc1ccc2c(c1)NC(=O)C2=Cc1ccc[nH]1 ? 1.0

// data source = PubChem BioAssay (NCATS)
